# measurement target: BRCA2 peptide/HLA-A*02:01 complex (recombinant) (human)
# assay remarks: SPR
quantity name: binding result

[[record]]
binder = "AS170036 VL1VH1-VLE32W (scFv) scFv: QSALTQPRSVSGSPGQSVTISCAGTSSDVGSWNYVSWYQQHPGKAPKLMIYQVNKRASGVPDRFSGSKSGNTASLTISGLQAEDEADYYCASYRSSDHNIVFGGGTKLTVLGGGGSGGGGSGGGGSEVQLVESGGGLVQPGGSLRLSCAASGFTFSSYAMSWVRQAPGKGLEWVSTINSGTGSPYYADSVKGRFTISRDNSKNTLYLQMNSLRAEDTAVYYCAKNFFDGSWFLGPPAMDYWGQGTLVTVSSHHHHHH"
quantity_name = "binding result"
reported = "no binding"

[[record]]
binder = "AS170036 VL1VH1-VHG56F (scFv) scFv: QSALTQPRSVSGSPGQSVTISCAGTSSDVGSENYVSWYQQHPGKAPKLMIYQVNKRASGVPDRFSGSKSGNTASLTISGLQAEDEADYYCASYRSSDHNIVFGGGTKLTVLGGGGSGGGGSGGGGSEVQLVESGGGLVQPGGSLRLSCAASGFTFSSYAMSWVRQAPGKGLEWVSTINSGTFSPYYADSVKGRFTISRDNSKNTLYLQMNSLRAEDTAVYYCAKNFFDGSWFLGPPAMDYWGQGTLVTVSSHHHHHH"
quantity_name = "binding result"
reported = "no binding"

